Let's look at some binders and their measured koff.
ASSAY TARGET: T1, Glutathione S-transferase (GST)-tagged AITR (human, UniProt Q9Y5U5 26-139)
T1 construct: also called GST-AITR antigen; GST-AITR analyte; not shown: Glutathione S-transferase (GST) tag
T1 sequence (looked up): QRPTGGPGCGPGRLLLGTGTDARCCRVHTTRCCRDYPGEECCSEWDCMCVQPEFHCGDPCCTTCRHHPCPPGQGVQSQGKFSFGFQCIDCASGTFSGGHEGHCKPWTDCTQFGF
PROTOCOL NOTES: SPR, Fab against the AITR antigen
Form entry: value (s⁻¹) — number only.

As a guide, the following entries are already answered.
BINDER | METRIC | RESULT NUMBER
IRTCA-A10 (Clone H1A10) Fab (Fab, V domains shown) VH: QVQLVQSGTQVKMPGASVKVSCKASGYTFDDYGIGWVRQAPGQGLEWMGWISPYTHRTNSSPKLQDRVTMTTDTSTSTAYMELRSLRSDDTAVYYCARDGTYYDFWSGYFDNAAFDSWGQGTLVTVSS VL: QSVVTQPPSVSAAPGQKVTISCSGSTSNIGNNYVSWYQQLPGTAPKLLIYDNYKRPSGIPDRFSGSKSGTSATLGITGLRTGDEADYFCGTWDSSLNAWVFGGGTKLTVL | koff | 0.000565
IRTCA-A12 (Clone H2A10) Fab (Fab, V domains shown) VH: QVQLVQSGTQVKMPGASVKVSCKASGYTFDDYGIGWVRQAPGQGLEWMGWISPYTHRTNSSPKLQDRVTMTTDTSTSTAYMELRSLRSDDTAVYYCARDGTYYDFWSGYFDNATFDFWGQGTLVTVSS VL: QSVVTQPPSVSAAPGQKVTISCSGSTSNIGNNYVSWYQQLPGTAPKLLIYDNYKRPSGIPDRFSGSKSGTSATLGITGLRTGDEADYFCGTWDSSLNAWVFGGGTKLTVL | koff | 0.000288
IRTCA-A1 (Clone L1E9) Fab (Fab, V domains shown) VH: QVQLVQSGTQVKMPGASVKVSCKASGYTFDDYGIGWVRQAPGQGLEWMGWISPYTHRTNSSPKLQDRVTMTTDTSTSTAYMELRSLRSDDTAVYYCARDGTYYDFWSGYFDNGAFDIWGQGTLVTVSS VL: QSVVTQPPSVSAAPGQKVTISCSGSTSNIGNNYVSWYQQLPGTAPKLLIYDNYKRPSGIPDRFSGSKSGTSATLGITGLRTGDEADYFCGSWESGSNAYKFGGGTKLTVL | koff | 0.000412

koff in this record for Parental IRTCA-A Fab (Fab, V domains shown) VH: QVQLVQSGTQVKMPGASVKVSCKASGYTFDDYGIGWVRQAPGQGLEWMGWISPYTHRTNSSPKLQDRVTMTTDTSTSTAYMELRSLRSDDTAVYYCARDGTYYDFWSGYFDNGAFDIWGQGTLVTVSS VL: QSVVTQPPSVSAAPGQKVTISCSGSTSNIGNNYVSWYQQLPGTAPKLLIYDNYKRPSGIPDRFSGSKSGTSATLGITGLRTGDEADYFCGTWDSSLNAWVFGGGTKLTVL : 0.00134

The recorded koff for IRTCA-A14 (Clone H2F8) Fab (Fab, V domains shown) VH: QVQLVQSGTQVKMPGASVKVSCKASGYTFDDYGIGWVRQAPGQGLEWMGWISPYTHRTNSSPKLQDRVTMTTDTSTSTAYMELRSLRSDDTAVYYCARDGTYYDFWSGYFDTAAFDIWGQGTLVTVSS VL: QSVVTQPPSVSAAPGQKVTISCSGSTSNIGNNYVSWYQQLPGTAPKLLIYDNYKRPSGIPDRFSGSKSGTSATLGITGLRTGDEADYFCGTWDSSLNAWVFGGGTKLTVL is 0.00027

What the record says about IRTCA-A15 (Clone H1F1) Fab (Fab, V domains shown) VH: QVQLVQSGTQVKMPGASVKVSCKASGYTFDDYGIGWVRQAPGQGLEWMGWISPYTHRTNSSPKLQDRVTMTTDTSTSTAYMELRSLRSDDTAVYYCARDGTYYDFWSGYFDNNAFDIWGQGTLVTVSS VL: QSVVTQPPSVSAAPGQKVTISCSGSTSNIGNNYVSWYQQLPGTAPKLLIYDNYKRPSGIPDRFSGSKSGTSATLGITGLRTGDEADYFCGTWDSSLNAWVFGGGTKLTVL : koff is 0.000334
